# test-settings: in ethanol, 283.15 K
property-label: solubility (mole fraction)

Lab book: solubility (mole fraction) of Nc1cccc2c1C(=O)N(C1CCC(=O)NC1=O)C2=O (stereo unspecified) noted as 2.4e-07

====

# test-settings: in isopropanol, 303.15 K
property-label: solubility (mole fraction)

Lab book: solubility (mole fraction) of Nc1cccc2c1C(=O)N(C1CCC(=O)NC1=O)C2=O (stereo unspecified) noted as 1.02e-06

====

# test-settings: in isopropanol, 288.15 K
property-label: solubility (mole fraction)
Number only, no unit.

Lab book: solubility (mole fraction) of Nc1cccc2c1C(=O)N(C1CCC(=O)NC1=O)C2=O (stereo unspecified) noted as 4.8e-07

====

# test-settings: in isopropanol, 308.15 K
property-label: solubility (mole fraction)
Number only, no unit.

Lab book: solubility (mole fraction) of Nc1cccc2c1C(=O)N(C1CCC(=O)NC1=O)C2=O (stereo unspecified) noted as 1.26e-06

====

# test-settings: in ethyl acetate, 318.15 K
property-label: solubility (mole fraction)
Number only, no unit.

Lab book: solubility (mole fraction) of Nc1cccc2c1C(=O)N(C1CCC(=O)NC1=O)C2=O (stereo unspecified) noted as 3.62e-06

====

# test-settings: in acetone, 318.15 K
property-label: solubility (mole fraction)
Number only, no unit.

Lab book: solubility (mole fraction) of Nc1cccc2c1C(=O)N(C1CCC(=O)NC1=O)C2=O (stereo unspecified) noted as 9.49e-06

====

# test-settings: in ethanol, 298.15 K
property-label: solubility (mole fraction)
Number only, no unit.

Lab book: solubility (mole fraction) of Nc1cccc2c1C(=O)N(C1CCC(=O)NC1=O)C2=O (stereo unspecified) noted as 5.3e-07

====

# test-settings: in ethanol, 308.15 K
property-label: solubility (mole fraction)
Number only, no unit.

Lab book: solubility (mole fraction) of Nc1cccc2c1C(=O)N(C1CCC(=O)NC1=O)C2=O (stereo unspecified) noted as 8.5e-07

====

# test-settings: in acetone, 298.15 K
property-label: solubility (mole fraction)
Number only, no unit.

Lab book: solubility (mole fraction) of Nc1cccc2c1C(=O)N(C1CCC(=O)NC1=O)C2=O (stereo unspecified) noted as 4.27e-06

====

# test-settings: in ethyl acetate, 293.15 K
property-label: solubility (mole fraction)
Number only, no unit.

Lab book: solubility (mole fraction) of Nc1cccc2c1C(=O)N(C1CCC(=O)NC1=O)C2=O (stereo unspecified) noted as 1.21e-06

====

# test-settings: in ethyl acetate, 313.15 K
property-label: solubility (mole fraction)
Number only, no unit.

Lab book: solubility (mole fraction) of Nc1cccc2c1C(=O)N(C1CCC(=O)NC1=O)C2=O (stereo unspecified) noted as 2.96e-06

====

# test-settings: in ethanol, 318.15 K
property-label: solubility (mole fraction)

Lab book: solubility (mole fraction) of Nc1cccc2c1C(=O)N(C1CCC(=O)NC1=O)C2=O (stereo unspecified) noted as 1.26e-06

====

# test-settings: in isopropanol, 278.15 K
property-label: solubility (mole fraction)
Number only, no unit.

Lab book: solubility (mole fraction) of Nc1cccc2c1C(=O)N(C1CCC(=O)NC1=O)C2=O (stereo unspecified) noted as 2.3e-07

====

# test-settings: in ethyl acetate, 278.15 K
property-label: solubility (mole fraction)

Lab book: solubility (mole fraction) of Nc1cccc2c1C(=O)N(C1CCC(=O)NC1=O)C2=O (stereo unspecified) noted as 4.5e-07
